Source of measurements: the C3SDB collision cross section collection

Give collision cross section (N2) for every item shown.
conditions: [M+H-H2O]+; instrument: DT; single field, calibrated with Agilent tune mix (Agilent)
Answers are plain numbers, in Å².

Consider the reported collision cross section (N2) for these molecules:
# MOLECULE, collision cross section (N2) / Å²
records = [
    ("N[C@H]1C(O)O[C@H](CO)[C@@H](O)[C@@H]1O (stereo partly specified)", 132.9),
    ("C[C@]12CC[C@@H]3c4ccc(O)cc4CC[C@H]3[C@@H]1CC[C@@H]2O", 159.7),
    ("O=C(O)/C=C/c1ccccc1O [trans-2-Hydroxycinnamic acid]", 124.1),
    ("C[C@]12CC[C@@H](O)C[C@@H]1CC[C@@H]1[C@@H]2CC[C@]2(C)C(=O)CC[C@@H]12", 166.6),
    ("O=C(O)CCCCC1CCSS1 (stereo unspecified)", 133.8),
]

Look up collision cross section (N2) for this molecule: "C[C@H](CCC(=O)NCCS(=O)(=O)O)[C@H]1CC[C@H]2[C@@H]3CC[C@@H]4C[C@H](O)CC[C@]4(C)[C@H]3CC[C@]12C"
220.6

---

Please provide measured collision cross section (N2) for the entries that follow.
settings: [M-H]-; instrument: DT; single field, calibrated with Agilent tune mix (Agilent)
Answers are plain numbers, in Å².

The following molecules have reported results that may help.
# MOLECULE, collision cross section (N2), Å²
measured = [
    ("CCCCCCCC/C=C\\CCCCCCCCCC(=O)O[C@H](COC(=O)CCCCCCCCCCCC)COP(=O)(O)OC[C@@H](O)CO", 266.4),
    ("CCCCC/C=C\\C/C=C\\CCCCCCCCCCCC(=O)O[C@H](COC(=O)CCCCCCCCCCC)COP(=O)(O)O[C@H]1C(O)C(O)C(O)[C@@H](O)C1O (some centres not stated)", 282.4),
    ("CCCCCC/C=C\\CCCCCCCCCC(=O)O[C@H](CO)COP(=O)(O)OCCN", 211.3),
    ("CC/C=C\\C/C=C\\C/C=C\\C/C=C\\CCCCC(=O)OC[C@H](COP(=O)(O)O[C@H]1C(O)C(O)C(O)[C@@H](O)C1O)OC(=O)CCCCCCCCCCCCCCCCCCC (some centres not stated)", 292.9),
    ("CCCCCCCCCCCCCCCC(=O)OC[C@@H](O)COP(=O)(O)O[C@H]1C(O)C(O)C(O)[C@@H](O)C1O (some centres not stated)", 229.1),
    ("CCCCC/C=C\\C/C=C\\C/C=C\\CCCCCCC(=O)O[C@H](CO/C=C\\CCCCCCCCCCCCCCCCCC)COP(=O)(O)OCCN", 277.1),
    ("CCCCC/C=C\\C/C=C\\C/C=C\\CCCCC(=O)OC[C@H](COP(=O)(O)OCCN)OC(=O)CCCCCCCCCCC/C=C\\C/C=C\\CCCCC", 277.5),
    ("CC/C=C\\C/C=C\\C/C=C\\C/C=C\\C/C=C\\CCCC(=O)O[C@H](CO/C=C\\CCCCCCCCCCCCCCCC)COP(=O)(O)OCCN", 270.6),
]

# return collision cross section (N2) for each item in the list
1. CCCCC/C=C\C/C=C\CCCCCCCC(=O)OC[C@H](COP(=O)(O)O[C@H]1C(O)C(O)C(O)[C@@H](O)C1O)OC(=O)CCCCCCCCC/C=C\CCCCCCCCCC (some centres not stated)
2. CCCCCCCCC/C=C\CCCCCCCC(=O)O[C@H](COC(=O)CCCCCCCCCCCC)COP(=O)(O)OCCN

299.2
256.6

For every item below, please supply its collision cross section (N2).
1. CCCCCCCCCCCCCCCCCCCCCC(=O)N[C@@H](CO)[C@H](O)CCCCCCCCCCCCCCC
2. CCCC/C=C\CCCCCCCC(=O)OC[C@H](COP(=O)(O)OC[C@@H](O)CO)OC(=O)CCCCCCCCCCCCCCCCCCCC
3. CCCCCCCCCCCCCCCCCC(=O)O[C@H](CO)COP(=O)(O)OCCN
4. CCCCCCCCCCCCC=CC[C@@H](O)[C@H](CO)NC(=O)CCCCCCCCCCCCCCCCC
5. CCCCCCCCCC/C=C\CCCCCCCCCC(=O)O[C@H](COC(=O)CCCCCCCCCCC)COP(=O)(O)OCCN

1. 262.1
2. 272.7
3. 214.1
4. 248.6
5. 263.5

Provide the reported collision cross section (N2) of each entry below, same order.
1. CCCCCCCCCCCCCCCCC(=O)OC[C@@H](O)COP(=O)(O)OC[C@H](N)C(=O)O
2. CCCCCC/C=C\CCCCCCCC(=O)OC[C@@H](O)COP(=O)(O)OCCN

220.1
203.8
